Values from paper PMC10364322

System: hiPSC-CMs (iCell-Cardiomyocytes^2)
recordedConditions: 10 µM; 2h
Property: BR (beating rate), % change from baseline; scope: individual compounds
Field: numeric (%). Do not append units.

Here are 3 compounds together with their reported answers.
{"columns": ["compound", "unitsLabel", "observedResult"],
 "data": [
  ["CC1(C)S[C@@H]2[C@H](NC(=O)[C@H](N)c3ccc(O)cc3)C(=O)N2[C@H]1C(=O)O", "%", 8],
  ["CC(=O)Oc1ccccc1C(=O)O", "%", 3],
  ["CC(C)(Sc1cc(C(C)(C)C)c(O)c(C(C)(C)C)c1)Sc1cc(C(C)(C)C)c(O)c(C(C)(C)C)c1", "%", 1]
]}

Return reported BR (beating rate), % change from baseline. Input compound: COc1nc(N)nc2c1ncn2[C@@H]1O[C@H](COP(=O)(N[C@@H](C)C(=O)OCC(C)(C)C)Oc2cccc3ccccc23)[C@@H](O)[C@@]1(C)O (some centres unmarked)
4

Give a short answer stating reported BR (beating rate), % change from baseline for C[C@H](CS)C(=O)N1CCC[C@H]1C(=O)O .
2

###

Here, each record is paired with measured Flat T-wave-like, number of observations/total well numbers data.
System: hiPSC-CMs (iCell-Cardiomyocytes^2)
recordedConditions: 3 µM, 96h

Check out these entries, answers already filled in.
{"columns": ["molecule", "testedTarget", "observedResult"],
 "data": [
  ["CC(C)(Sc1cc(C(C)(C)C)c(O)c(C(C)(C)C)c1)Sc1cc(C(C)(C)C)c(O)c(C(C)(C)C)c1", "hiPSC-CMs (iCell-Cardiomyocytes^2)", "0/5"],
  ["COc1cccc2c1C(=O)c1c(O)c3c(c(O)c1C2=O)C[C@@](O)(C(=O)CO)C[C@@H]3O[C@H]1C[C@H](N)[C@H](O)[C@H](C)O1", "hiPSC-CMs (iCell-Cardiomyocytes^2)", "0/5"],
  ["C#Cc1cccc(Nc2ncnc3cc(OCCOC)c(OCCOC)cc23)c1", "hiPSC-CMs (iCell-Cardiomyocytes^2)", "0/5"]
]}

Identify the reported Flat T-wave-like, number of observations/total well numbers for the following entry. COc1cc2c(Nc3ccc(Br)cc3F)ncnc2cc1OCC1CCN(C)CC1
0/5

Report measured Flat T-wave-like, number of observations/total well numbers; entry is N=C(N)c1ccc(OCCCCCOc2ccc(C(=N)N)cc2)cc1
0/6

Provide Flat T-wave-like, number of observations/total well numbers value for the following molecule: COc1nc(N)nc2c1ncn2[C@@H]1O[C@H](COP(=O)(N[C@@H](C)C(=O)OCC(C)(C)C)Oc2cccc3ccccc23)[C@@H](O)[C@@]1(C)O (stereo partly drawn)
4/5

###

System: hiPSC-CMs (iCell-Cardiomyocytes^2)
recordedConditions: 0.1 µM, 72h
Consider the following molecules and their measured Beating below threshold, number of observations/total well numbers readings.

Example results:
{"columns": ["recordSmiles", "observedResult"],
 "data": [
  ["N=C(N)c1ccc(OCCCCCOc2ccc(C(=N)N)cc2)cc1", "0/6"],
  ["Cc1cn(-c2cc(NC(=O)c3ccc(C)c(Nc4nccc(-c5cccnc5)n4)c3)cc(C(F)(F)F)c2)cn1", "0/5"],
  ["COc1cc2c(Nc3ccc(Br)cc3F)ncnc2cc1OCC1CCN(C)CC1", "0/5"]
]}

Fill in reported Beating below threshold, number of observations/total well numbers for this entry: COc1cccc2c1C(=O)c1c(O)c3c(c(O)c1C2=O)C[C@@](O)(C(=O)CO)C[C@@H]3O[C@H]1C[C@H](N)[C@H](O)[C@H](C)O1
0/5
